Hello, the source for this data is the NIST ThermoML archive (doi:10.1016/j.jct.2005.04.010), in case you need it.

assay: activity coefficient (dimensionless); of the first substance listed, at infinite dilution; xn = mol fraction of the nth substance listed; conditions: 323.15 K; Liquid; Chromatography; x1 = 0
Could you please classify the records by activity coefficient using these ranges: lower segment: < 1; middle segment: ≥ 1 and < 5; upper segment: ≥ 5

Solved entries:
| molecule | discrete label |
| --- | --- |
| O [water] + CCCCCCCCn1cc[n+](C)c1.O=S(=O)([N-]S(=O)(=O)C(F)(F)F)C(F)(F)F | middle segment |
| CCC(C)=O [butanone] + CCCCCC[n+]1ccn(C)c1.O=S(=O)([N-]S(=O)(=O)C(F)(F)F)C(F)(F)F | lower segment |

Dear colleague, I would appreciate it if you could identify the bin for CCCCCCCC [octane] + CCCCCCCCn1cc[n+](C)c1.O=S(=O)([N-]S(=O)(=O)C(F)(F)F)C(F)(F)F and reply at your convenience. upper segment

Dear colleague, I would appreciate it if you could identify the bin for c1ccccc1 [benzene] + CCCCCC[n+]1ccn(C)c1.O=S(=O)([N-]S(=O)(=O)C(F)(F)F)C(F)(F)F and reply at your convenience. lower segment

Dear colleague, I would appreciate it if you could identify the bin for CCCCCCC [heptane] + CCCCCCCCn1cc[n+](C)c1.O=S(=O)([N-]S(=O)(=O)C(F)(F)F)C(F)(F)F and reply at your convenience. upper segment

Dear colleague, I would appreciate it if you could identify the bin for C=CCCCCCC [oct-1-ene] + CCCCCCCCn1cc[n+](C)c1.O=S(=O)([N-]S(=O)(=O)C(F)(F)F)C(F)(F)F and reply at your convenience. upper segment

Dear colleague, I would appreciate it if you could identify the bin for Cc1ccccc1 [toluene] + CCCCCCCCn1cc[n+](C)c1.O=S(=O)([N-]S(=O)(=O)C(F)(F)F)C(F)(F)F and reply at your convenience. lower segment
